system: PC-3 PIP/flu tumor-bearing mice; assay: Biodistribution studies in PC-3 PIP/flu tumor-bearing mice; settings: 192 h p.i.

{"columns": ["Compound", "Liver"],
 "data": [
  ["O=C(O)CCC(NC(=O)NC(CCCCNC(=O)C(Cc1ccc2ccccc2c1)NC(=O)C1CCC(n2cc(CC(NC(=O)CN3CCN(CC(=O)O)CCN(CC(=O)O)CCN(CC(=O)O)CC3)C(=O)NC(CCCCNC(=O)CCCc3ccc(I)cc3)C(=O)O)nn2)CC1)C(=O)O)C(=O)O (stereo not shown) [^177Lu-PSMA-ALB-01, metal not drawn]", "1.51 ± 0.37 % IA/g"],
  ["O=C(O)CCC(NC(=O)NC(CCCCNC(=O)C(Cc1ccc2ccccc2c1)NC(=O)C1CCC(CNC(=O)C(CCCCNC(=O)CN2CCN(CC(=O)O)CCN(CC(=O)O)CCN(CC(=O)O)CC2)NC(=O)CC(NC(=O)CC(NC(=O)CCCc2ccc(I)cc2)C(=O)O)C(=O)O)CC1)C(=O)O)C(=O)O (stereo not shown) [^177Lu-PSMA-ALB-05, metal not drawn]", "0.84 ± 0.06 % IA/g"],
  ["O=C(O)CCC(NC(=O)NC(CCCCNC(=O)C(Cc1ccc2ccccc2c1)NC(=O)C1CCC(CNC(=O)C(CCCCNC(=O)CN2CCN(CC(=O)O)CCN(CC(=O)O)CCN(CC(=O)O)CC2)NC(=O)CCCCCCC(=O)NC(CCCCNC(=O)CCCc2ccc(I)cc2)C(=O)O)CC1)C(=O)O)C(=O)O (stereo not shown) [^177Lu-PSMA-ALB-04, metal not drawn]", "2.45 ± 0.81 % IA/g"],
  ["O=C(O)CCC(NC(=O)NC(CCCCNC(=O)C(Cc1ccc2ccccc2c1)NC(=O)C1CCC(CNC(=O)C(CCCCNC(=O)CCCc2ccc(I)cc2)NC(=O)CN2CCN(CC(=O)O)CCN(CC(=O)O)CCN(CC(=O)O)CC2)CC1)C(=O)O)C(=O)O (stereo not shown) [^177Lu-PSMA-ALB-03, metal not drawn]", "1.25 ± 0.20 % IA/g"]
]}
